# assay procedure: CEETOX_H295R_11DCORT: CeeTox H295R High-throughput Steroidogenesis Assay for 11-Deoxycortisol (11DCORT) (AID 2283432)
# measurement conditions: actives raise or lower the signal
Calls of active or inactive are those of the source. The calls were made as follows: active = hit-call score of the fitted dose curve at least 0.9, where 1 is the maximum; inactive = score below 0.9.
Answer with one of the outcomes active, inactive

Cc1cccc(Nc2cc(Cl)nc(SCC(=O)O)n2)c1C; active

What call does the record list for COC(=O)c1ccc(O)cc1 ?
inactive

Please share the test call associated with Cc1nc(-c2ccc3c(c2)CCN(CCC2CCC(NC(=O)/C=C/c4ccc(F)cc4)CC2)CC3)no1 (configuration not stated) .
active

====

# tgt: Luciferin 4-monooxygenase (Photinus pyralis) (UniProt P08659)
# Sequence (P08659 whole entry, looked up): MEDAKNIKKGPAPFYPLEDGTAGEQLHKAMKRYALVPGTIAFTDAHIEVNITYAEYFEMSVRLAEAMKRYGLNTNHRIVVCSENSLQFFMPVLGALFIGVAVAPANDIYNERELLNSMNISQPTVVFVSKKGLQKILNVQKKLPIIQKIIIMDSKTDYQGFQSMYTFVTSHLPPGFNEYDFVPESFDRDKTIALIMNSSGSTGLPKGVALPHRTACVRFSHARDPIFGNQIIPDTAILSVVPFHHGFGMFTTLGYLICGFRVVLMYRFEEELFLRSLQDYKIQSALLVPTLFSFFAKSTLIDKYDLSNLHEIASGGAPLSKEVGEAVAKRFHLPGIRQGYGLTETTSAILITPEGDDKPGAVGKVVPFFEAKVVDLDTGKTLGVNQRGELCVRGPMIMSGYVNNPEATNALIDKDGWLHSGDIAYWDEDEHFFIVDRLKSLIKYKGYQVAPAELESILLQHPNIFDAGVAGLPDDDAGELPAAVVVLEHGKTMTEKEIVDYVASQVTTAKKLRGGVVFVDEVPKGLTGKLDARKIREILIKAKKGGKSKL
# assay procedure: CCTE_Simmons_QuantiLum_inhib_2: CCTE's Firefly Luciferase Inhibition Assay, Simmons Lab (AID 2283767)
Records with an inconclusive call do not appear. Active and inactive are the calls of the source. The calls were made as follows: active = hit-call score of the fitted dose curve at least 0.9, where 1 is the maximum; inconclusive = response in the unintended direction; inactive = score below 0.9.
Returns: one label drawn from active, inactive

COc1cc(S(=O)(=O)O)c(C)cc1N=Nc1c(O)ccc2cc(S(=O)(=O)O)ccc12; active
Cc1cccc(C)c1O; inactive

Please turn your attention to the following entry.
I'd appreciate the recorded outcome for COc1ccc(C)cc1N from this test.
inactive

====

# Read-out: Phosphatase and tensin (PTEN), PTEN (gene 5728)
# assay procedure: LTEA_HepaRG_PTEN: Life Technologies and Expression Analysis (LTEA) Assay for Phosphatase and tensin (PTEN) using HepaRG (AID 2283523)
# measurement conditions: mRNA level, 48 h; actives raise or lower the signal
Activity calls are given as the source filed them. The calls were made as follows: active = hit-call score of the fitted dose curve at least 0.9, where 1 is the maximum; inactive = score below 0.9.
One label from this list, please: 1 (yes) for active, 0 (no) for inactive

Previously resolved entries follow.
C1CCC(SSC2CCCCC2)CC1; 0 (no)
CN[C@H]1CC[C@@H](c2ccc(Cl)c(Cl)c2)c2ccc(S(N)(=O)=O)cc21; 0 (no)
O=C(O)Cc1ccccc1Nc1c(Cl)cccc1Cl; 0 (no)

Check the results log: what was the call for Cc1ccc(C(C)C)c(O)c1 ?
0 (no)

// return assay outcome for CC1(C)CC(N=C=O)CC(C)(CN=C=O)C1 (configuration not stated)
0 (no)

Would you mind telling me which call this test gave COc1cc(S(=O)(=O)O)c(C)cc1N=Nc1c(O)ccc2cc(S(=O)(=O)O)ccc12 ?
0 (no)

What outcome does the record of this test show for CCOC(=O)CCC(=O)OCC ?
1 (yes)

Assay result, entry CCCCCCCCCCCCCCCC — outcome?
0 (no)

For CC(=O)Oc1ccccc1C(=O)O , what call appears in the results of this test?
0 (no)

What did this assay record as the result for Cc1cc(NC(=O)C(=O)O)cc(C)c1Oc1ccc(O)c2c1CCC2 ?
0 (no)

Recorded call for O=C(OCCCCCOC(=O)c1ccccc1)c1ccccc1 ?
1 (yes)

Tell me the recorded outcome of this test for CCCCN(CCCC)CCCC .
0 (no)

Test call, this molecule: CCNc1cccc(C)c1
0 (no)

Lab log entry: NCC1(Cc2noc(=O)[nH]2)CCCCC1 — outcome as called in the assay?
0 (no)

Lab log entry: CCCCCC(=O)O — outcome as called in the assay?
0 (no)

====

# Read-out: Peroxisomal acyl-coenzyme A oxidase 1 (ACOX1) gene, ACOX1 (gene 51)
# assay procedure: LTEA_HepaRG_ACOX1: Life Technologies and Expression Analysis (LTEA) Assay for Peroxisomal acyl-coenzyme A oxidase 1 (ACOX1) gene using HepaRG (AID 2283467)
# measurement conditions: mRNA level, 48 h; actives raise or lower the signal
Active and inactive are the calls of the source. The calls were made as follows: active = hit-call score of the fitted dose curve at least 0.9, where 1 is the maximum; inactive = score below 0.9.
Answer with one of the outcomes given here: active, inactive

O=c1c(O)c(-c2ccc(O)c(O)c2)oc2cc(O)cc(O)c12; inactive
Oc1ccc2ccccc2c1N=Nc1ccccc1; active

I would be grateful if you could indicate the recorded call for Cc1ccccc1Cl .
inactive

What did this assay record as the result for CCCCC(CC)COC(=O)CC(C(=O)OCC(CC)CCCC)S(=O)(=O)O (stereo not drawn) ?
active

Which outcome was entered for the molecule CC(=O)C(C)=CC1C(C)=CCCC1(C)C (stereo not drawn) in this test?
inactive

====

# Read-out: CYP2C9 (gene 1559)
# assay procedure: LTEA_HepaRG_CYP2C9: Life Technologies and Expression Analysis (LTEA) Assay for CYP2C9 using HepaRG (AID 2283484)
# measurement conditions: mRNA level, 48 h; actives raise or lower the signal
Active and inactive are the calls of the source. How the source made its calls: active means hit-call score of the fitted dose curve at least 0.9, where 1 is the maximum; inactive means score below 0.9.
measure: AC50

// solved cases for AC50 follow
O=C(N[C@@H](Cc1ccccc1)[C@@H](O)C(=O)N1C[C@@H](O)[C@@H](O)C1)c1cc2cc(Cl)ccc2[nH]1; 12.5 µM (active)
CCCCCCCCCCC; inactive
Cc1ccc(C)c(O)c1C; inactive
COc1ccc2c(c1)c(CC(=O)O)c(C)n2C(=O)c1ccc(Cl)cc1; inactive
COc1cc(S(=O)(=O)O)c(C)cc1N=Nc1c(O)ccc2cc(S(=O)(=O)O)ccc12; inactive

Now for another entry.
Indicate its recorded AC50; the compound in question is CCOC(=O)CCC(=O)OCC
inactive

====

# assay procedure: APR_HepG2_CellCycleArrest_72hr: Apredica 72-hour HepG2 Assay for Cell Cycle Arrest (AID 2282914)
# measurement conditions: high-content imaging, actives raise or lower the signal
The source made the active and inactive calls. How the source made its calls: active means hit-call score of the fitted dose curve at least 0.9, where 1 is the maximum; inactive means score below 0.9.
Could you please pick one outcome from this set? active, inactive

For orientation, consider the following solved cases.
Cc1ccc(C(C)C)c(O)c1; inactive
Oc1ccc2c(c1)OC[C@@H](N1CCC(O)(c3ccc(F)cc3)CC1)[C@H]2O; inactive
NS(=O)(=O)c1cc2c(cc1Cl)NCNS2(=O)=O; inactive
c1cc(-c2ccncc2)ccn1; inactive
Cc1ccccc1Cl; inactive
CN1CCN(Cc2cc(-c3ccc4[nH]c(=O)oc4c3)co2)[C@@H](c2ccc(F)cc2)C1; active

// return assay outcome for Cc1cccc(Nc2cc(Cl)nc(SCC(=O)O)n2)c1C
inactive

What classification did CCc1c(C(=O)NN2CCCCC2)nn(-c2ccc(Cl)cc2Cl)c1-c1ccc(Br)cc1 end up with in this test?
active

// param item: CC(CO)OC(C)CO (stereo not given) (tested in a mixture with another compound) ; yields the recorded call
inactive

Please state the recorded outcome for this molecule: O=C(N[C@@H](Cc1ccccc1)[C@@H](O)C(=O)N1C[C@@H](O)[C@@H](O)C1)c1cc2cc(Cl)ccc2[nH]1
active

State the result this test recorded for CCOC(=O)C(C)(C)Oc1ccc(Cl)cc1 .
inactive

Test call, this molecule: COc1ccc(S(=O)(=O)N2C(=O)[C@@](c3ccccc3OC)(N3C[C@H](O)C[C@H]3C(=O)N(C)C)c3cc(Cl)ccc32)c(OC)c1
inactive

Can you look up the reported call for O=c1[nH]cc(F)c(=O)[nH]1 for me?
active

Per the assay record, what outcome was assigned to CCCCCCC(=O)OCC ?
inactive

Hello, I am checking results. What call was entered for NC(=O)Cn1c(=O)cc(CCN2CCN(c3nccc4sccc34)CC2)c2ccc(F)cc21 ?
inactive

Dear colleague, could you share the recorded outcome for COCCOCCOC when you have a moment?
inactive

What is the recorded call for this molecule in the test? COc1cccc2c1C(=O)c1c(O)c3c(c(O)c1C2=O)C[C@@](O)(C(=O)CO)C[C@@H]3O[C@H]1C[C@H](N)[C@H](O)[C@H](C)O1
active

// return assay outcome for CCCCCCCCCCCCCO
active

Identify the outcome logged in this assay for the molecule shown: CCCCCCCCCCC
inactive

Per the assay record, what outcome was assigned to CNCc1cc(F)ccc1Oc1ccc(Cl)c(Cl)c1 ?
inactive

Could you check what this test reported for CCCc1cc(=O)[nH]c(=S)[nH]1 ?
inactive

# lookup: test call for COc1cc(-c2nc(NC(=O)c3cc4cc(C)cc(C)c4n3CC(=O)O)sc2CCC2CCCCC2)c(OC)cc1Cl
active

Hello, I am checking results. What call was entered for O=C(O)CCCCC(=O)O ?
inactive

Hey, what did the test say about CN1CCCC1=O ?
inactive

# lookup: test call for CCCCCCOCCO
inactive

For Cc1c(C(=O)O)c(O)cc2c1C(=O)c1c(O)c([C@@H]3O[C@H](CO)[C@@H](O)[C@H](O)[C@H]3O)c(O)c(O)c1C2=O , what call appears in the results of this test?
inactive

Dear all, I need the recorded test outcome for CC(=O)OC/C=C(\C)CCC=C(C)C , thank you.
inactive

====

# Read-out: Interferon-gamma inducible Protein 10 (IP10), CXCL10 (gene 3627)
# assay procedure: BSK_KF3CT_IP10: BioMAP Diversity Plus: KF3CT Assay for Interferon-gamma inducible Protein 10 (IP10) Biomarker Activity (AID 2283068)
# measurement conditions: primary human keratinocytes with fibroblasts; actives raise or lower the signal
The source made the active and inactive calls. How the source made its calls: active means hit-call score of the fitted dose curve at least 0.9, where 1 is the maximum; inactive means score below 0.9.
Write down one outcome, taken from active, inactive

Below, 3 compounds whose answers are already recorded.
CN[C@H]1CC[C@@H](c2ccc(Cl)c(Cl)c2)c2ccc(S(N)(=O)=O)cc21; active
Cc1ccc(C)c(O)c1C; inactive
Clc1cc(Cl)c(Cl)cc1Cl; inactive

Test call, this compound: Cc1ccc(C)c(C)c1
inactive

What outcome does the record of this test show for CCCCC(CC)COC(=O)CC(C(=O)OCC(CC)CCCC)S(=O)(=O)O (stereo not drawn) ?
active

GET /call?item= CCCCCCCCCCCCCO returns the recorded outcome of this test.
active

Please indicate how the test categorized COc1cc(-c2nc(NC(=O)c3cc4cc(C)cc(C)c4n3CC(=O)O)sc2CCC2CCCCC2)c(OC)cc1Cl .
active

Please state the recorded outcome for this compound: CC(=O)Oc1ccccc1C(=O)O
inactive

Per the records of this test, what outcome belongs to Cc1ccccc1Cl ?
inactive

How did this test come out for O=c1c(O)c(-c2ccc(O)c(O)c2)oc2cc(O)cc(O)c12 ?
active

Could you kindly confirm the outcome this assay logged for Cc1ccc2ncccc2c1 ?
inactive

For O=C(O)CCCCC(=O)O , what call appears in the results of this test?
inactive

Assay outcome for CCc1c(C(=O)NN2CCCCC2)nn(-c2ccc(Cl)cc2Cl)c1-c1ccc(Br)cc1 : what was it?
active
